log10 of IC50 listing for selected molecules.
- MEASUREMENT_TARGET: kappa opioid receptor (OPRK1) (Homo sapiens (Human))
- Sequence (P41145 whole entry): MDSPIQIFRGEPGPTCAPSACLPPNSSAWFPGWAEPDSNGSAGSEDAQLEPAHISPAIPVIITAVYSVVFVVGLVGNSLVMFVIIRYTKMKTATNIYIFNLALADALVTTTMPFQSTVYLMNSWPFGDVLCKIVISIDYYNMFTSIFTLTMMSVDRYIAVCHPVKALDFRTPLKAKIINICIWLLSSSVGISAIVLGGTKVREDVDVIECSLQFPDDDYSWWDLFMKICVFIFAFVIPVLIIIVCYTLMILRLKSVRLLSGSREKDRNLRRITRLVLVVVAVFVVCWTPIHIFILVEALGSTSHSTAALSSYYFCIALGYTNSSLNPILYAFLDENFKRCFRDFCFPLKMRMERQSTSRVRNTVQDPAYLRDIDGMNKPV
- ASSAY_COMMENT: OPRK1 antagonist assay (b-arrestin-2-TEV / b-lactamase reporter cell line, EC80 U-50488 challenge)
- Assay type: cell-based
- CONDITIONS_USED: read-out: IC50 nM (% inhib if other than 50%); antagonist mode vs EC80 U-50488; NA = not active at concentrations up to 10 μM
Would you kindly interpret these values as log10 of IC50 expressed in nM?

Ask: # get_value(readout='log10 of IC50', item= CO[C@@H]1CN(c2nc3ccc(C)cc3cc2-c2nc(C)no2)CC[C@@H]1NC1CCOCC1 )
Result: 1.83

Ask: # get_value(readout='log10 of IC50', item= COC(=O)c1cc(C)cnc1N1CCC(NC2CCCCC2)C(CO)C1 (stereo not drawn) )
Result: 2.30

Ask: # get_value(readout='log10 of IC50', item= COC(=O)c1cc(Br)cnc1N1CCC(NC2CCCCC2)C(C)(C)C1 (stereo not drawn) )
Result: 2.37

Ask: # get_value(readout='log10 of IC50', item= Cc1ccc2nc(N3CCC(NC[C@H](C)O)CC3)c(-c3nc(C)no3)cc2c1 )
Result: 2.03

Ask: # get_value(readout='log10 of IC50', item= COC1CN(c2nc3ccc(C)cc3cc2-c2nc(C)no2)CCC1NC1CCCCCC1 (stereo not drawn) )
Result: -0.15

Ask: # get_value(readout='log10 of IC50', item= COC1CN(c2nc3ccccc3nc2-c2nc(C)no2)CCC1NC1CCCCC1 (stereo not drawn) )
Result: 1.76

Ask: # get_value(readout='log10 of IC50', item= COC(=O)c1cc(Br)cnc1N1CCC(NC2CC3CCC2(C)C3(C)C)CC1 (stereo not drawn) )
Result: 4.00

Consider now this further molecule.
Ask: # get_value(readout='log10 of IC50', item= CCOC(=O)c1cc(Br)cnc1N1CC[C@@H](NC2CCCCC2)[C@H](O)C1 )
Result: 1.36
